Test system: L1210 leukemia ip in BDF1 mice, survival T/C
EXPERIMENT: NCI In Vivo Anticancer Drug Screen. Data for tumor model L1210 Leukemia (intraperitoneal) in B6D2F1 (BDF1) mice
EXPERIMENTAL PARAMETERS: endpoint: mean survival time; dose: 200.0 mg/kg/injection; schedule: Q04DX003 (ip); vehicle: saline with Tween-80; higher = longer survival
Experimental: The antitumor activity of compounds was measured in mice bearing transplantable tumors. Survival or tumor size were measured and the results are expressed as the measurement made in the treated group (T) divided by the measurement made in the vehicle treated control group (C). The tumor model used in this assay is L1210 Leukemia (intraperitoneal) in B6D2F1 (BDF1) mice
Inconclusive results and toxic doses are left out.
METRIC: T/C

**Query** Report T/C for CCCCCCC(C)O[Si](C)c1ccc(-c2ccccc2)cc1 (configuration not stated)
**Result** 94 % of control

**Query** Return value of T/C for input C=CCc1cc(OC)c2c(c1OC)C(=O)c1cccc(OC)c1C2=O , no commentary.
**Result** 105 % of control

**Query** Please report T/C for the following compound: COc1ccc(CN2CCN(Cc3ccc(OC)c(OC)c3)C2c2ccc(OC)c(OC)c2)cc1OC
**Result** 93 % of control

**Query** Entry O=C(O)c1cscc1-c1cccc2ccccc12 needs its T/C filled in; supply it.
**Result** 98 % of control

**Query** Dear colleague, please send me the reported T/C for CCSC(SCC)C1OC(C)(C)OC1C1COC(C)(C)O1 (configuration not stated) when you can.
**Result** 94 % of control

**Query** Input CC1(C)CC(=O)C=C(OCCc2ccccc2)C1 , output reported T/C.
**Result** 94 % of control

**Query** Consider the compound Oc1c(Br)ccc2c(O)c(Br)ccc12 and give its recorded T/C.
**Result** 92 % of control
